// OD 492 nm lookup, one value per entry
molecular target: purified rabies virus glycoprotein (rabies virus ERA strain) (rabies virus strain ERA, UniProt P03524 20-524); test: phage ELISA on coated purified G protein (ERA), anti-M13-HRP
ENDPOINT_LABEL: OD 492 nm (OD 492 nm)

SC04-060 (scFv) scFv: AMAQVQLVESGPGLVKASETLSLTCTVSDGSISSFYWSWIRQPPGKGLEWVGEIQDTGRTNYNPSLKSRVTISLDTSKNQFSLTLSSVTAADTAVYYCAREKEKYSDRSGYSYYYYYMDVWGKGTTVTVSSGTGGSGGTGSGTGGSTDIQMTQSPSSLSASVGDRVTITCRASQGISTYLNWYQQKPGKAPNLLIYGASNLQSGVPSRFSGSESGTDFTLTISSLQPEDFATYYCQQSFTTPRTFGQGTKLEIKRAAA	0.923
SC04-010 (scFv) scFv: AMAQVQLVQSGGDLVQPGRSLRLSCAASGFTFSSYGMHWVRQAPGKGLEWVADISYDGSNKYYADSVKGRFTISRDNSKNTLYLQMNSLRAEDTAVYYCAKDGLDLTGTIQPFGYWGQGTLVTVSSGTGGSGGTGSGTGGSTDIQMTQSPSSLSASVGDRVTITCRASQGIRNDLGWYQQKPGKAPKLLIYAASSLQSGVPSRFSGSGSGTDFTLTISSLQPEDFATYYCLQDYNYPRTFGQGTKVEIKRAAA	0.915
